experiment-description: NCI Yeast Anticancer Drug Screen. Data for the bub3 strain (AID 167)
test-parameters: S. cerevisiae bub3 mutant strain, at 50.0 µM, active compounds read high
Compounds without any hit were thinned out: in the full panel of roughly 79,000, 15% have a hit.
property-measured: growth inhibition (%)
Output spec: scalar in %, unitless text.

In the examples that follow, each entry is paired with its recorded growth inhibition.
{"compound": "Cc1[nH]nc2c1NC(=O)OC(C)C2 (centres undefined)", "growth inhibition [%]": -2.85}
{"compound": "NC(=S)NCCN1CCOCC1", "growth inhibition [%]": 2.25}
{"compound": "CC1(C(=O)O)CCCC2(C)C3=CC(=O)CCC3=CCC12 (centres undefined)", "growth inhibition [%]": 24.7}

Moving on to another compound below.
Give the measured growth inhibition of OC1c2c(ccc3ccccc23)CCC1N1CCCCC1 (centres undefined) .
-13.4

* * *

Recorded growth inhibition, one value per entry.
experiment-description: NCI Yeast Anticancer Drug Screen. Data for the rad50 strain (AID 155);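 note: 0% = growth of vehicle-only cultures of the same strain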
test-parameters: S. cerevisiae rad50 strain growth inhibition; at 50.0 µM; active compounds read high
About 79,000 compounds went through this panel and 15% of them were active in at least one assay; those are over-represented in the sample as a whole.
Output spec: scalar in %, unitless text.

In the examples that follow, each entry is paired with its recorded growth inhibition.
{"molecule": "NC(N)=NCC1CCCCCCN1 (stereo unspecified)", "growth inhibition, %": -9.2}
{"molecule": "NNC(N)=Nc1cccc2ccccc12", "growth inhibition, %": -2.9}
{"molecule": "CC(=O)Nc1c(Cl)cccc1[N+](=O)[O-]", "growth inhibition, %": -25.1}
{"molecule": "COc1ccc(CC(N)C(=O)OC(C)C)cc1 (stereo unspecified)", "growth inhibition, %": -16.3}
{"molecule": "Cc1c([N+](=O)[O-])cc2c(c1[N+](=O)[O-])C(C)(C)C(C)CC2(C)C (stereo unspecified)", "growth inhibition, %": 1.2}

Give the measured growth inhibition of `O=[N+]([O-])c1cccc2nc3ccccc3c(NCCc3ccccn3)c12` .
13.3

* * *

experiment-description: NCI Yeast Anticancer Drug Screen. Data for the mec2-1 strain (AID 157)
test-parameters: S. cerevisiae mec2-1 strain, at 50.0 µM
About 79,000 compounds went through this panel and 15% of them were active in at least one assay; those are over-represented in the sample as a whole. Active and inactive are the calls of the source. No stated cut-off is given here; in the data, active means growth inhibition above about 70%; inactive means the rest.
Hello, when you answer, please use one of the following outcomes: active, inactive

Reference set (2 entries):
{"compound": "CN1C(=O)c2ccccc2C(O)(c2ccccc2)C1(O)c1ccccc1 (stereo unspecified)", "classification": "inactive"}
{"compound": "CC12CCC(=O)N1[C@@H](c1ccccc1)[C@@H](c1ccccc1)O2 (stereo partly specified)", "classification": "inactive"}

Check the results log: what was the call for `CCN(CC)CCc1c2c(nc3ccccc13)C(=O)c1cccnc1C2=O` ?
inactive

Check the results log: what was the call for O=C1C=C2CCCCCCCCC(C1)C2 (stereo unspecified) ?
inactive

Check the results log: what was the call for `CCCc1c(O)cccc1O` ?
inactive

Check the results log: what was the call for `CCCCCCC(=O)O` ?
inactive

Check the results log: what was the call for `CCCCCCCCCCCCCCCCS(=O)(=O)N/N=C/c1ccccc1O` ?
inactive

Check the results log: what was the call for `OCC=C1CCCCCC1` ?
inactive

Check the results log: what was the call for `Cn1c2c(c(=O)c3c4[nH]c5c(c(=O)c4ccc31)CCCC5)CCCC2` ?
inactive

Check the results log: what was the call for `C=CCN(CC=C)CCNc1cc(C)nc(/N=C(\N)Nc2ccc(Cl)c(Cl)c2)n1` ?
active

Check the results log: what was the call for COc1ccc(OC)c(/C=C/C(=O)NC(CO)CSCSC)c1 (stereo unspecified) ?
inactive
